- System: A498 complex spheroids with HUVEC/MSC, growth
- EXPERIMENT_NOTES: Anticancer human tumor A498 cell line growth inhibition [AhR];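 further: luminescence signal used as a surrogate for viable cells; seven day exposure starting three days after spheroid seeding; luminescence viability scaled so 100% equals DMSO vehicle wells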
- RUN_PARAMETERS: second compound 3.16 µM; first compound 1 µM; stronger effect = lower value
Record form. Attribute: viability, T/C. Fill in for each entry.
Give bare numbers, in %.

Example entries begin here.
COc1cc(Nc2ncc3c(n2)-c2ccc(Cl)cc2C(c2c(F)cccc2OC)=NC3)ccc1C(=O)O + Cc1ccccc1N=Nc1ccc(NC(=O)c2ccnn2C)c(C)c1 | 49.9
COc1cc(C2c3cc4c(cc3C(OC3OC5COC(C)OC5C(O)C3O)C3COC(=O)C23)OCO4)cc(OC)c1O (stereo not drawn) + Cc1ccccc1N=Nc1ccc(NC(=O)c2ccnn2C)c(C)c1 | 62.8
Nc1ccccc1NC(=O)c1ccc(CNC(=O)OCc2cccnc2)cc1 + Cc1cncc(-c2nc(NCCc3c[nH]c4ccccc34)c3ncn(C(C)C)c3n2)c1 | 41.2
COc1cccc2c1C(=O)c1c(O)c3c(c(O)c1C2=O)CC(O)(C(=O)CO)CC3OC1CC(N)C(O)C(C)O1 (stereo not drawn) + Cc1ccccc1N=Nc1ccc(NC(=O)c2ccnn2C)c(C)c1 | 30.6

Hi there! I need viability, T/C for each item below, if you can.
1. CC1COCCN1c1cc(-c2ccnn2C)c2ccnc(-c3ccn[nH]3)c2n1 (stereo not drawn) + CC(CO)NC(=O)c1cc(-c2ccc(Cl)cc2)nn(-c2cnn(C)c2)c1=O
2. O=C(c1cc(Cc2n[nH]c(=O)c3ccccc23)ccc1F)N1CCN(C(=O)C2CC2)CC1 + Cc1ccccc1N=Nc1ccc(NC(=O)c2ccnn2C)c(C)c1
3. COc1cc(Nc2ncc3c(n2)-c2ccc(Cl)cc2C(c2c(F)cccc2OC)=NC3)ccc1C(=O)O + CC(CO)NC(=O)c1cc(-c2ccc(Cl)cc2)nn(-c2cnn(C)c2)c1=O
4. CC1COCCN1c1cc(C2(S(C)(=N)=O)CC2)nc(-c2ccnc3[nH]ccc23)n1 (stereo not drawn) + Cc1ccccc1N=Nc1ccc(NC(=O)c2ccnn2C)c(C)c1
5. Nc1ncn(C2CC(O)C(CO)O2)c(=O)n1 (stereo not drawn) + CC(CO)NC(=O)c1cc(-c2ccc(Cl)cc2)nn(-c2cnn(C)c2)c1=O
6. CC1(C)CCC(CN2CCN(c3ccc(C(=O)NS(=O)(=O)c4ccc(NCC5CCOCC5)c([N+](=O)[O-])c4)c(Oc4cnc5[nH]ccc5c4)c3)CC2)=C(c2ccc(Cl)cc2)C1 + CC(CO)NC(=O)c1cc(-c2ccc(Cl)cc2)nn(-c2cnn(C)c2)c1=O
7. COc1ccc([C@@H](O)c2cc(-c3ncnc4cc(N5CCOCC5)ccc34)c(F)cc2Cl)nn1 + Cc1cncc(-c2nc(NCCc3c[nH]c4ccccc34)c3ncn(C(C)C)c3n2)c1

-- reply
15.4
85.5
47.2
64
59.2
63.3
25

Each of the following entries comes with a recorded value; kindly state viability, T/C for each.
1. COc1ccc([C@@H](O)c2cc(-c3ncnc4cc(N5CCOCC5)ccc34)c(F)cc2Cl)nn1 + Cc1ccccc1N=Nc1ccc(NC(=O)c2ccnn2C)c(C)c1
2. CC1(C)CCC(CN2CCN(c3ccc(C(=O)NS(=O)(=O)c4ccc(NCC5CCOCC5)c([N+](=O)[O-])c4)c(Oc4cnc5[nH]ccc5c4)c3)CC2)=C(c2ccc(Cl)cc2)C1 + Cc1cncc(-c2nc(NCCc3c[nH]c4ccccc34)c3ncn(C(C)C)c3n2)c1
3. COc1cccc2c1C(=O)c1c(O)c3c(c(O)c1C2=O)CC(O)(C(=O)CO)CC3OC1CC(N)C(O)C(C)O1 (stereo not drawn) + Cc1cncc(-c2nc(NCCc3c[nH]c4ccccc34)c3ncn(C(C)C)c3n2)c1
4. COc1cccc2c1C(=O)c1c(O)c3c(c(O)c1C2=O)CC(O)(C(=O)CO)CC3OC1CC(N)C(O)C(C)O1 (stereo not drawn) + CC(CO)NC(=O)c1cc(-c2ccc(Cl)cc2)nn(-c2cnn(C)c2)c1=O
5. O=C(C=Cc1cccc(S(=O)(=O)Nc2ccccc2)c1)NO + Cc1ccccc1N=Nc1ccc(NC(=O)c2ccnn2C)c(C)c1

-- reply
[38.5, 40.9, 2.21, 11.3, 55.7]
